# Tested on: chloroquine-resistant strains of the human-pathogenic Plasmodium falciparum
# Assay Overview: Growth inhibition of chloroquine-resistant Plasmodium falciparum strains in vitro
# Assay type: cell-based
# Condition Details: Plasmodium falciparum, read-out: IC50 growth inhibition, strain 7G8, chloroquine-resistant
Observed Property: IC50
// return the numeric value with its unit appended

// below: answered molecules
1) Clc1ccc2c(NCc3ccc(CNc4ccnc5cc(Cl)ccc45)cc3)ccnc2c1 6.8 ng/mL
2) Clc1ccc2c(N[C@H]3CC[C@@H](Nc4ccnc5cc(Cl)ccc45)CC3)ccnc2c1 9 ng/mL
3) Clc1ccc2c(N[C@@H]3CCC[C@H](Nc4ccnc5cc(Cl)ccc45)C3)ccnc2c1 3.8 ng/mL

Prompt line: What value of measured IC50 is listed for `Clc1ccc2c(Nc3cccc(Nc4ccnc5cc(Cl)ccc45)c3)ccnc2c1` ?
Response line: 17.1 ng/mL

----------
# System: chloroquine-resistant strains of the human-pathogenic Plasmodium falciparum
# Assay Overview: Growth inhibition of chloroquine-resistant Plasmodium falciparum strains in vitro
# Assay type: cell-based
# Condition Details: Plasmodium falciparum, read-out: IC50 growth inhibition, strain 7G8, chloroquine-resistant
Observed Property: IC50 (µg/mL)
Response body: numeric value in µg/mL, unit text excluded.

Example cases with answers are listed next.
Compound	IC50, µg/mL
Clc1ccc2c(NCc3ccccc3CNc3ccnc4cc(Cl)ccc34)ccnc2c1 [Example 1]	0.007
CCN(CC)CCCC(C)Nc1ccnc2cc(Cl)ccc12 (stereo not drawn) [Chloroquine, reference compound]	0.081

Now look at this one.
Prompt line: Look at this compound and give its reported IC50. Clc1ccc2c(NCc3cccc(CNc4ccnc5cc(Cl)ccc45)c3)ccnc2c1 [Example 2]
Response line: 0.0139

----------
# Tested on: chloroquine-resistant strains of the human-pathogenic Plasmodium falciparum
# Assay Overview: Growth inhibition of chloroquine-resistant Plasmodium falciparum strains in vitro
# Type: cell-based
# Condition Details: Plasmodium falciparum, read-out: IC50 growth inhibition, strain ItG2F6, chloroquine-resistant
Overview of reported IC50 across a group of molecules:
Use µg/mL as the unit, but write only the number.

// below: answered molecules
Molecule	Unit Of Measurement	IC50
Clc1ccc2c(NC3CCC(CC4CCC(Nc5ccnc6cc(Cl)ccc56)CC4)CC3)ccnc2c1 (stereo not drawn)	µg/mL	0.0133
C[C@H]1[C@@H](Nc2ccnc3cc(Cl)ccc23)CCC[C@H]1Nc1ccnc2cc(Cl)ccc12	µg/mL	0.0064

Here is the next item to consider.
Prompt line: # lookup: IC50 of CCN(CC)CCCC(C)Nc1ccnc2cc(Cl)ccc12 (stereo not drawn) [Chloroquine, reference compound]
Response line: 0.068

----------
# Test system: chloroquine-resistant strains of the human-pathogenic Plasmodium falciparum
# Assay Overview: Growth inhibition of chloroquine-resistant Plasmodium falciparum strains in vitro
# Type: cell-based
# Condition Details: Plasmodium falciparum, read-out: IC50 growth inhibition, strain ItG2F6, chloroquine-resistant
Property: IC50; scope: individual compounds
Write it as a number; the unit ng/mL goes unstated.

Compound	Observed Property	Unit Of Measurement	Numeric Readout
Clc1ccc2c(NCC3CCCC(CNc4ccnc5cc(Cl)ccc45)C3)ccnc2c1 (centres unmarked)	IC50	ng/mL	11.6
Clc1ccc2c(Nc3cccc(Nc4ccnc5cc(Cl)ccc45)c3)ccnc2c1	IC50	ng/mL	12.9
Clc1ccc2c(N[C@H]3CC[C@H](Nc4ccnc5cc(Cl)ccc45)CC3)ccnc2c1	IC50	ng/mL	5.3

Prompt line: For the compound `Clc1ccc2c(NCc3ccccc3CNc3ccnc4cc(Cl)ccc34)ccnc2c1` , what IC50 is on record?
Response line: 4.7

Prompt line: Which IC50 is reported for this compound? `Clc1ccc2c(N[C@@H]3CCC[C@H](Nc4ccnc5cc(Cl)ccc45)C3)ccnc2c1`
Response line: 4.1

----------
Reported IC50 values for the following compounds.
# Tested on: chloroquine-sensitive strains of the human-pathogenenic Plasmodium falciparum
# Assay Overview: Growth inhibition of chloroquine-sensitive Plasmodium falciparum strains in vitro
# Type: cell-based
# Condition Details: NF54, strain NF54, chloroquine-sensitive, read-out: IC50 growth inhibition
Note: unit µg/mL is implicit; provide only the numeric part.

Check out these entries, answers already filled in.
Compound	IC50, µg/mL
Clc1ccc2c(N[C@H]3CCC[C@H](Nc4ccnc5cc(Cl)ccc45)C3)ccnc2c1 (relative stereo)	0.0107
Clc1ccc2c(NCc3ccccc3CNc3ccnc4cc(Cl)ccc34)ccnc2c1	0.0102
Clc1ccc2c(NCc3ccc(CNc4ccnc5cc(Cl)ccc45)cc3)ccnc2c1	0.0096
Clc1ccc2c(NCc3cccc(CNc4ccnc5cc(Cl)ccc45)c3)ccnc2c1	0.0103
Clc1ccc2c(NC/C=C/CNc3ccnc4cc(Cl)ccc34)ccnc2c1	0.0308

Prompt line: Could you tell me which IC50 is on file for Clc1ccc2c(NC3CCC(CC4CCC(Nc5ccnc6cc(Cl)ccc56)CC4)CC3)ccnc2c1 (centres unmarked) ?
Response line: 0.0116

Prompt line: Please give the measured IC50 for this compound: `Clc1ccc2c(Nc3cccc(Nc4ccnc5cc(Cl)ccc45)c3)ccnc2c1`
Response line: 0.0237

Prompt line: # input compound: `Clc1ccc2c(N[C@H]3CC[C@@H](Nc4ccnc5cc(Cl)ccc45)CC3)ccnc2c1` ; wanted: its IC50
Response line: 0.0026

Prompt line: Given the compound `Clc1ccc2c(N[C@H]3CC[C@H](Nc4ccnc5cc(Cl)ccc45)CC3)ccnc2c1` , what is its reported IC50?
Response line: 0.0072

Prompt line: Suppose we examine the compound Clc1ccc2c(NCC3CCCC(CNc4ccnc5cc(Cl)ccc45)C3)ccnc2c1 (centres unmarked) ; what IC50 value has been reported?
Response line: 0.0172

Prompt line: Using the record for `C[C@H]1[C@@H](Nc2ccnc3cc(Cl)ccc23)CCC[C@H]1Nc1ccnc2cc(Cl)ccc12` , report its IC50.
Response line: 0.0077

----------
# System: chloroquine-resistant strains of the human-pathogenic Plasmodium falciparum
# Assay Overview: Growth inhibition of chloroquine-resistant Plasmodium falciparum strains in vitro
# Format: cell-based
# Condition Details: Plasmodium falciparum, read-out: IC50 growth inhibition, strain ItG2F6, chloroquine-resistant
Recorded IC50 values for a group of compounds are listed next.
Unit ng/mL implied. Number only.

Please review the following examples before continuing.
1. Clc1ccc2c(NCc3cccc(CNc4ccnc5cc(Cl)ccc45)c3)ccnc2c1 19
2. Clc1ccc2c(N[C@H]3CC[C@@H](Nc4ccnc5cc(Cl)ccc45)CC3)ccnc2c1 6.8

Kindly review the next compound as well.
Prompt line: What value of measured IC50 is listed for `Clc1ccc2c(NCc3ccc(CNc4ccnc5cc(Cl)ccc45)cc3)ccnc2c1` ?
Response line: 7.9
